FYI, the data here is from patent US20030092644A1.

Test system: cells infected with HIV
METRIC: CC50

Reading of CC50 for NC(=O)c1ncn([C@H]2O[C@@H](CO)[C@H](O)[C@@H]2O)n1 [Levovirin™] with cells infected with HIV: > 600 µM

----------
ASSAY OVERVIEW: Cytotoxicity in Influenza B assay
Format: cell-based
ASSAY SETUP: cells infected with Influenza B; read-out: Cytotoxicity (CC50) INFL. B
METRIC: CC50

Summary for this compound, NC(=O)c1ncn([C@@H]2O[C@H](CO)[C@@H](O)[C@H]2O)n1 : CC50 is > 100 µM

----------
ASSAY OVERVIEW: Cytotoxicity in Influenza A assay
Assay type: cell-based
ASSAY SETUP: cells infected with Influenza A; read-out: Cytotoxicity (CC50) INFL. A
METRIC: CC50

Summary for this molecule, NC(=O)c1ncn([C@@H]2O[C@H](CO)[C@@H](O)[C@H]2O)n1 [Ribavirin] : CC50 is 56 µM
